- study.target: Metabotropic glutamate receptor 2 (Homo sapiens)
- measurement.description: Positive allosteric modulation of human mGluR2 expressed in CHO cells assessed as incorporation of [35S]GTPgammaS after 30 mins by scintillation counting analysis
- Type: functional, cell-based
- Sequence (Q14416 whole entry): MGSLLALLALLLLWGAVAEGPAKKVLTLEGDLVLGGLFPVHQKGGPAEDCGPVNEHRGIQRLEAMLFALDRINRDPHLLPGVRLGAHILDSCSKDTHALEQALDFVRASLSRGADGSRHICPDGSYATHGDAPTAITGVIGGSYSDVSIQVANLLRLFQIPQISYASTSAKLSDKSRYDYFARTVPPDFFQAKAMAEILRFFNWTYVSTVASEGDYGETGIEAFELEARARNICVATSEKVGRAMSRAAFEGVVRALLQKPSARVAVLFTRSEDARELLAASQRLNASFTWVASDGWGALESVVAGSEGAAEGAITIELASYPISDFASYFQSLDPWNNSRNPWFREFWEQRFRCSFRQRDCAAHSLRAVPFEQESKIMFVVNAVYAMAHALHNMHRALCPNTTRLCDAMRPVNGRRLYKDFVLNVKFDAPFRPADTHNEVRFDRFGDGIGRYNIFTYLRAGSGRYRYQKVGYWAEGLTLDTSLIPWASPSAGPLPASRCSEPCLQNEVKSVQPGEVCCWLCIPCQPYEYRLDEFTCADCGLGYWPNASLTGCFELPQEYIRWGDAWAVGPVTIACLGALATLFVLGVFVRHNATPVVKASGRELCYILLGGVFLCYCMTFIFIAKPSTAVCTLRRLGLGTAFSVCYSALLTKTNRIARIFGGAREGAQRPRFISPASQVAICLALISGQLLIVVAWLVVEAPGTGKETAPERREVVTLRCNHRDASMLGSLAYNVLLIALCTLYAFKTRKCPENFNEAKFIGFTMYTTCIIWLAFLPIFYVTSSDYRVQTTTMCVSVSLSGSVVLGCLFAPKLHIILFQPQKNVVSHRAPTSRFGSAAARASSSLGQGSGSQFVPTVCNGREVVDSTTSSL
pEC50: −log10 of the molar value.
measured.property: pEC50

Below: 8 molecules and their reported pEC50.
compound.string	pEC50
CCCn1ccc2c(NCc3ccccc3)cccc2c1=O	5.70
CCCn1ccc2c(NCc3ccccc3Cl)cccc2c1=O	6.70
CCCn1ccc2c(NCCCc3ccccc3)cccc2c1=O	6.80
CCCn1ccc2c(NCCc3ccc(OC)cc3)cccc2c1=O	6.60
CCCn1ccc2c(N(C)CCc3ccc(OC)cc3)cccc2c1=O	6.40
CCCn1ccc2c(NCCc3cccc(OC)c3)cccc2c1=O	6.60
CCCn1ccc2c(NCCc3ccccc3)ccc(Cl)c2c1=O	6.60
CCCn1ccc2c(NCc3ccc(OC)cc3)cccc2c1=O	6.30

P = CCCn1ccc2c(NCc3cccc(Oc4ccccc4)c3)cccc2c1=O
Q = CCCn1ccc2c(NCCc3ccc(C)cc3)cccc2c1=O
R = CCCn1ccc2c(NCCc3ccccc3)cccc2c1=O
I would appreciate it if you could sort these 3 molecules by pEC50, starting from the smallest number. List the labels in the requested order.
P, R, Q

a = CCCn1ccc2c(NCc3cccc(OC(F)(F)F)c3)cccc2c1=O
b = CCCn1ccc2c(NCCc3ccccc3OC)cccc2c1=O
Between the entries labelled a and b , which has a larger pEC50 value on record? Refer to your chosen item by its label in the answer.
b
(b: 6.90, a: 6.70)

----------
- study.target: Metabotropic glutamate receptor 2 (Homo sapiens)
- measurement.description: Positive allosteric modulation of human mGluR2 expressed in CHO cells assessed as incorporation of [35S]GTPgammaS at 0.3 nM to 50 uM after 30 mins by scintillation counting analysis relative to control
- Assay type: functional, cell-based
- Sequence (Q14416 19-872 limits assumed): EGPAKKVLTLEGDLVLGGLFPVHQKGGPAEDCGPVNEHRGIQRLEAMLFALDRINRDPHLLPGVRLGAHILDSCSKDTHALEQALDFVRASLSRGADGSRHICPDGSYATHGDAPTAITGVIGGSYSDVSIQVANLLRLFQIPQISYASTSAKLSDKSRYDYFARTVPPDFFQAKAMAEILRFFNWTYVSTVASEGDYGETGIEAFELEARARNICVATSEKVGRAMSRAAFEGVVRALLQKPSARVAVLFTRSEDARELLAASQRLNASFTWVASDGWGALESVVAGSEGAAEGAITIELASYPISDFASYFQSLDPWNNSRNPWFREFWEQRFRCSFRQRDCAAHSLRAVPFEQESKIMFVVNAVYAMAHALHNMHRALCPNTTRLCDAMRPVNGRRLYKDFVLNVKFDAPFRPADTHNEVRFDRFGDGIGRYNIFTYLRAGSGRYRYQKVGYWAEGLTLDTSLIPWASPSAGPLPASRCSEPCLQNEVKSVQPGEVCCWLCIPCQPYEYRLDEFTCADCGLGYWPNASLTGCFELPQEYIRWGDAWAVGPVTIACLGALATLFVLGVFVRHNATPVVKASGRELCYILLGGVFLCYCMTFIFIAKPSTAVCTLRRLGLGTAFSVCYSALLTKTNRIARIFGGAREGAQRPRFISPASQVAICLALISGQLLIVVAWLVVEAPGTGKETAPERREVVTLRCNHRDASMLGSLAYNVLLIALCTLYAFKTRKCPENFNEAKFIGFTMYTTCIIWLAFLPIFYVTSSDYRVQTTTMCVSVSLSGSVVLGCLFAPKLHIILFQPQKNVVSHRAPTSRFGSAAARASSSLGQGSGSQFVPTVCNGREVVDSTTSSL
measured.property: Emax (%)

compound.string	measured.property	numeric.value
CCCn1ccc2c(NCc3ccc(OC)cc3)cccc2c1=O	Emax	81

I = CCCn1ccc2c(NCc3ccccc3)cccc2c1=O
II = CCCn1ccc2c(NCCc3ccccc3)cccc2c1=O
Please let me know which one, I or II , has a lower measured Emax value. Refer to your chosen item by its label in the answer.
I
(I: 80%, II: 123%)

----------
- measurement.description: Drug metabolism in human liver microsomes at 5 uM after 15 mins
- Format: ADME
- condition.description: read-out: Drug metabolism
measured.property: metabolised at 0.25 h, 5 µM (%)

Below: 3 compounds and their reported metabolised at 0.25 h, 5 µM.
compound.string	measurement.units	numeric.value
CCCn1ccc2c(NCc3cccc(OC(F)(F)F)c3)cccc2c1=O	%	34
CCCn1ccc2c(NCc3ccccc3)cccc2c1=O	%	38
CCCn1ccc2c(NCc3ccccc3Cl)cccc2c1=O	%	26

1 = CCCn1ccc2c(NCCc3ccccc3OC)cccc2c1=O
2 = CCCn1ccc2c(NCCCc3ccccc3)cccc2c1=O
Please let me know which one, 1 or 2 , has a lower measured metabolised at 0.25 h, 5 µM value. Refer to your chosen item by its label in the answer.
2
(2: 57%, 1: 91%)

a = CCCn1ccc2c(NCCc3ccc(OC)cc3)cccc2c1=O
b = CCCn1ccc2c(NCCc3ccccc3)cccc2c1=O
Please let me know which one, a or b , has a lower measured metabolised at 0.25 h, 5 µM value. Refer to your chosen item by its label in the answer.
b
